Property: inhibition at 500 µg/mL; scope: individual compounds
Target Under Test: BChE (Equus caballus, UniProt P81908)
Construct: obtaining AChE and BChE enzymes from electric eel and equine serum, respectively; from tissue; host or cells: equine serum
Sequence (P81908 whole entry): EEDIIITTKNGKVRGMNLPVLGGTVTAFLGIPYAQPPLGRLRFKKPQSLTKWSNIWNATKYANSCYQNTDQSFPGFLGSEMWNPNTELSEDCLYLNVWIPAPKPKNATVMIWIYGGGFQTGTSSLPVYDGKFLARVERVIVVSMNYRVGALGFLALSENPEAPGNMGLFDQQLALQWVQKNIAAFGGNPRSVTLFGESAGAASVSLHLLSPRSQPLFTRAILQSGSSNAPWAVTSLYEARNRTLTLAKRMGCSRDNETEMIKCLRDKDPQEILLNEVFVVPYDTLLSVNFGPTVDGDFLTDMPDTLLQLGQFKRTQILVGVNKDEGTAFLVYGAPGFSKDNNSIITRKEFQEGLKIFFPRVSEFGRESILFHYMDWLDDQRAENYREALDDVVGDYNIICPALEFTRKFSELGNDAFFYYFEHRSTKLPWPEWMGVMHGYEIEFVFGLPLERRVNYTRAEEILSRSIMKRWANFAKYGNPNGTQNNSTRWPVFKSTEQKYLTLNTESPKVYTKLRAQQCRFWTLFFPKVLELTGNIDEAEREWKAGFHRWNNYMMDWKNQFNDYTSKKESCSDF
Experimental Details: biochemical
Condition Label: 500 µg/mL; read-out: BChE percent enzyme inhibition, Mean ± SEM
Endpoint Label: inhibition at 500 µg/mL (%)

INSERT INTO results (compound, unit_of_measurement, value) VALUES
  ('CN(C)c1ccc(/C=C/C(=O)/C=C/c2ccc(N(C)C)cc2)cc1 [h4]', '%', 49.5),
  ('Cc1ccc(/C=C/C(=O)/C=C/c2ccc(C)cc2)cc1 [h1]', '%', 56.4),
  ('O=C(/C=C/c1ccc(Cl)cc1)/C=C/c1ccc(Cl)cc1 [h3]', '%', 69.5),
  ('COc1ccc(/C=C/C(=O)/C=C/c2ccc(OC)cc2)cc1 [h2]', '%', 64.4);

---

Target Under Test: BChE (Equus caballus, UniProt P81908)
Construct: obtaining AChE and BChE enzymes from electric eel and equine serum, respectively; from tissue; host or cells: equine serum
Experimental Details: biochemical
pIC50: −log10 of the molar value.
Endpoint Label: pIC50

INSERT INTO measurements (molecule, endpoint_label, value) VALUES
  ('O=C(/C=C/c1ccc([N+](=O)[O-])cc1)/C=C/c1ccc([N+](=O)[O-])cc1 [h5]', 'pIC50', 2.52);

---

Target Under Test: BChE (Equus caballus, UniProt P81908)
Construct: obtaining AChE and BChE enzymes from electric eel and equine serum, respectively; from tissue; host or cells: equine serum
Experimental Details: biochemical
Condition Label: 250 µg/mL; read-out: BChE percent enzyme inhibition, Mean ± SEM
# inhibition at 250 µg/mL per record follows
Endpoint Label: inhibition at 250 µg/mL (%)

INSERT INTO results (given_smiles, target_under_test, unit_of_measurement, value) VALUES
  ('Cc1ccc(/C=C/C(=O)/C=C/c2ccc(C)cc2)cc1', 'BChE (Equus caballus, UniProt P81908)', '%', 51.9),
  ('O=C(/C=C/c1ccc(Cl)cc1)/C=C/c1ccc(Cl)cc1', 'BChE (Equus caballus, UniProt P81908)', '%', 62.4),
  ('COc1ccc(/C=C/C(=O)/C=C/c2ccc(OC)cc2)cc1', 'BChE (Equus caballus, UniProt P81908)', '%', 57.2),
  ('CN(C)c1ccc(/C=C/C(=O)/C=C/c2ccc(N(C)C)cc2)cc1', 'BChE (Equus caballus, UniProt P81908)', '%', 42.6);

---

Target Under Test: AChE (Electrophorus electricus, UniProt O42275)
Construct: obtaining AChE and BChE enzymes from electric eel and equine serum, respectively; from tissue; host or cells: electric eel
Sequence (O42275 24-633): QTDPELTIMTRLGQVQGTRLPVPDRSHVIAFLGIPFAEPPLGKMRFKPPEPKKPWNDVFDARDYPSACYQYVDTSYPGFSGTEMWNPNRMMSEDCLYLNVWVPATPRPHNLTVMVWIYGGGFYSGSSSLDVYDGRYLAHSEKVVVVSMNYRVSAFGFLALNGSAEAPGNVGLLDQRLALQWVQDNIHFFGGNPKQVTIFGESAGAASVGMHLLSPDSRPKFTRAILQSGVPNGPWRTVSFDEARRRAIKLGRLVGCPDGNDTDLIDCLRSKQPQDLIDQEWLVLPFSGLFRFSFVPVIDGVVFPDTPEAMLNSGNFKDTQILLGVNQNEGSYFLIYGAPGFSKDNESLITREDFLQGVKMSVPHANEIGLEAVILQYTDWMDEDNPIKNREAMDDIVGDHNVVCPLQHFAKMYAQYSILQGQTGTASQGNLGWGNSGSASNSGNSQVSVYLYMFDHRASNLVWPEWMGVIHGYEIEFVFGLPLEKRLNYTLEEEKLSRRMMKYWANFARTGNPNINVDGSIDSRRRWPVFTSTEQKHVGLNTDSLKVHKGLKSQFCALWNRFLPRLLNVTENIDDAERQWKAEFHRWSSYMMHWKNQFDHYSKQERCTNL
Experimental Details: biochemical
Condition Label: 125 µg/mL; read-out: AChE percent enzyme inhibition, Mean ± SEM
Endpoint Label: inhibition at 125 µg/mL (%)

INSERT INTO results (given_smiles, endpoint_label, value) VALUES
  ('CN(C)c1ccc(/C=C/C(=O)/C=C/c2ccc(N(C)C)cc2)cc1', 'inhibition at 125 µg/mL', 39.5),
  ('Cc1ccc(/C=C/C(=O)/C=C/c2ccc(C)cc2)cc1', 'inhibition at 125 µg/mL', 54.3),
  ('O=C(/C=C/c1ccc(Cl)cc1)/C=C/c1ccc(Cl)cc1', 'inhibition at 125 µg/mL', 62.4),
  ('COc1ccc(/C=C/C(=O)/C=C/c2ccc(OC)cc2)cc1', 'inhibition at 125 µg/mL', 53.6);

---

Target Under Test: BChE (Equus caballus)
Construct: obtaining AChE and BChE enzymes from electric eel and equine serum, respectively; from tissue; host or cells: equine serum
Experimental Details: biochemical
Condition Label: 125 µg/mL; read-out: BChE percent enzyme inhibition, Mean ± SEM
Method: Evaluation of anticholinesterase activity of the synthesized compounds was performed according to Ellman’s method and was determined by obtaining AChE and BChE enzymes from electric eel and equine serum, respectively. DMSO was used for the dissolution of test samples (1 mg/mL), which were diluted in phosphate buffer (0.1 M) to concentrations from 1000 to 62.5 µg/mL. […] A spectrophotometer was used to measure absorbance at 412 nm at 30 °C with a reaction time of 4 min. […]
Endpoint Label: inhibition at 125 µg/mL (%)

INSERT INTO assay_data (given_smiles, target_under_test, value) VALUES
  ('COc1ccc(/C=C/C(=O)/C=C/c2ccc(OC)cc2)cc1', 'BChE (Equus caballus)', 48.6),
  ('CN(C)c1ccc(/C=C/C(=O)/C=C/c2ccc(N(C)C)cc2)cc1', 'BChE (Equus caballus)', 35.3),
  ('Cc1ccc(/C=C/C(=O)/C=C/c2ccc(C)cc2)cc1', 'BChE (Equus caballus)', 46.2),
  ('O=C(/C=C/c1ccc(Cl)cc1)/C=C/c1ccc(Cl)cc1', 'BChE (Equus caballus)', 58.3);

---

Test system: AChE in the hippocampus region of mouse brain
Construct: from tissue; host or cells: mouse brain hippocampus (supernatant of homogenate)
Format: in vivo
Condition Label: pretreatment, then scopolamine, n = 6
Endpoint Label: Reversal of scopolamine-increased hippocampus AChE level (in words)

INSERT INTO measurements (compound, value) VALUES
  ('CN(C)c1ccc(/C=C/C(=O)/C=C/c2ccc(N(C)C)cc2)cc1 [h4]', 'no prominent'),
  ('O=C(/C=C/c1ccc(Cl)cc1)/C=C/c1ccc(Cl)cc1 [h3]', 'reversed'),
  ('O=C(/C=C/c1ccc([N+](=O)[O-])cc1)/C=C/c1ccc([N+](=O)[O-])cc1 [h5]', 'no prominent'),
  ('Cc1ccc(/C=C/C(=O)/C=C/c2ccc(C)cc2)cc1 [h1]', 'no prominent'),
  ('COc1ccc(/C=C/C(=O)/C=C/c2ccc(OC)cc2)cc1 [h2]', 'reversed');

---

Target Under Test: BChE (Equus caballus, UniProt P81908)
Construct: obtaining AChE and BChE enzymes from electric eel and equine serum, respectively; from tissue; host or cells: equine serum
Experimental Details: biochemical
Condition Label: Ellman's method, 1000 to 62.5 μg/mL, n = 3; read-out: BChEI (IC50) (converted)
Endpoint Label: IC50 (µM)

INSERT INTO measurements (given_smiles, target_under_test, unit_of_measurement, value) VALUES
  ('CN(C)c1ccc(/C=C/C(=O)/C=C/c2ccc(N(C)C)cc2)cc1', 'BChE (Equus caballus, UniProt P81908)', 'µM', 1600),
  ('COc1ccc(/C=C/C(=O)/C=C/c2ccc(OC)cc2)cc1', 'BChE (Equus caballus, UniProt P81908)', 'µM', 503),
  ('O=C(/C=C/c1ccc(Cl)cc1)/C=C/c1ccc(Cl)cc1', 'BChE (Equus caballus, UniProt P81908)', 'µM', 222),
  ('Cc1ccc(/C=C/C(=O)/C=C/c2ccc(C)cc2)cc1', 'BChE (Equus caballus, UniProt P81908)', 'µM', 927);

---

Target Under Test: AChE (Electrophorus electricus, UniProt O42275)
Construct: obtaining AChE and BChE enzymes from electric eel and equine serum, respectively; from tissue; host or cells: electric eel
Experimental Details: biochemical
Condition Label: 250 µg/mL; read-out: AChE percent enzyme inhibition, Mean ± SEM
Listing: inhibition at 250 µg/mL of selected molecules
Endpoint Label: inhibition at 250 µg/mL (%)

INSERT INTO assay_data (given_smiles, value) VALUES
  ('Cc1ccc(/C=C/C(=O)/C=C/c2ccc(C)cc2)cc1', 58.1),
  ('CN(C)c1ccc(/C=C/C(=O)/C=C/c2ccc(N(C)C)cc2)cc1', 46.3),
  ('COc1ccc(/C=C/C(=O)/C=C/c2ccc(OC)cc2)cc1', 61.2),
  ('O=C(/C=C/c1ccc(Cl)cc1)/C=C/c1ccc(Cl)cc1', 69.5);

---

Examples of molecules with documented inhibition at 1000 µg/mL follow.
Target Under Test: BChE (Equus caballus, UniProt P81908)
Construct: obtaining AChE and BChE enzymes from electric eel and equine serum, respectively; from tissue; host or cells: equine serum
Experimental Details: biochemical
Condition Label: 1000 µg/mL; read-out: BChE percent enzyme inhibition, Mean ± SEM
Endpoint Label: inhibition at 1000 µg/mL (%)

INSERT INTO results (given_smiles, endpoint_label, unit_of_measurement, value) VALUES
  ('CN(C)c1ccc(/C=C/C(=O)/C=C/c2ccc(N(C)C)cc2)cc1', 'inhibition at 1000 µg/mL', '%', 56.3),
  ('Cc1ccc(/C=C/C(=O)/C=C/c2ccc(C)cc2)cc1', 'inhibition at 1000 µg/mL', '%', 62.2),
  ('COc1ccc(/C=C/C(=O)/C=C/c2ccc(OC)cc2)cc1', 'inhibition at 1000 µg/mL', '%', 69.8),
  ('O=C(/C=C/c1ccc(Cl)cc1)/C=C/c1ccc(Cl)cc1', 'inhibition at 1000 µg/mL', '%', 78.7);
